- Tested on: rodent lifetime carcinogenesis bioassay, tumor incidence TD50
- assay remarks: carcinogenic potency in animals, long-term in vivo studies, CPDB compilation (AID 1745844)
- test parameters: rat; strain Sprague-Dawley; males; i.p.; site: all sites + brain + mammary gland + olfactory bulb; lesion: leukemia + lymphoma + carcinoma, NOS + olfactory neuroblastoma + adenocarcinoma, NOS + adenoma, NOS; dosed 26 weeks; study length 61 weeks
readout name: TD50
Express your answer as a number followed by its unit.

For this molecule ( CNNCc1ccc(C(=O)NC(C)C)cc1 ), measured TD50 is 0.284 mg/kg/day

* * *

- Tested on: rodent lifetime carcinogenesis bioassay, tumor incidence TD50
- assay remarks: carcinogenic potency in animals, long-term in vivo studies, CPDB compilation (AID 1745844)
- test parameters: mouse; strain Crj:BDF1; males; inhaled; site: liver; lesion: hepatocellular adenoma; dosed 104 weeks; study length 104 weeks
readout name: TD50

For this molecule ( ClC(Cl)=C(Cl)Cl ), measured TD50 is 602 mg/kg/day
